All values here come from PubChem BioAssay AID1963446.

Test system: 993429-296-R-J1-PDC complex spheroid growth, percent test/control;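 also: spheroids exposed to compounds for seven days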
Test: Anticancer human tumor 993429-296-R-J1-PDC patient-derived uterine sarcoma cell line growth inhibition [Asc]
Conditions: second compound 0.316 µM; first compound 0.00316 µM; stronger effect = lower value
OBSERVATION_TYPE: viability, T/C (%)
Could you give me the number in %? Just the number is fine.

Solved entries:
CCN1CCN(Cc2ccc(Nc3ncc(F)c(-c4cc(F)c5nc(C)n(C(C)C)c5c4)n3)nc2)CC1 + CNC(C)C(=O)NC1CN(S(=O)(=O)c2cccc(S(=O)(=O)N3CCC4CCC(C(=O)NC(c5ccccc5)c5ccccc5)N4C(=O)C(NC(=O)C(C)NC)C3)c2)CCC2CCC(C(=O)NC(c3ccccc3)c3ccccc3)N2C1=O	45.3
Cn1ncnc1[C@H]1c2n[nH]c(=O)c3cc(F)cc(c23)N[C@@H]1c1ccc(F)cc1 + Cc1c(S(C)(=O)=O)c(-c2cc(F)cc(N3CCN(c4ccc(NS(=O)(=O)c5ccc(NC(CCN6CCC(C(=O)OCCCP(=O)(O)O)CC6)CSc6ccccc6)c(S(=O)(=O)C(F)(F)F)c5)cc4)CC3)c2)c(-c2ccc(Cl)cc2)n1C(C)C	50.3
NC1CCC(NC2CC2c2ccccc2)CC1 (centres undefined) + CNC(C)C(=O)NC1CN(S(=O)(=O)c2cccc(S(=O)(=O)N3CCC4CCC(C(=O)NC(c5ccccc5)c5ccccc5)N4C(=O)C(NC(=O)C(C)NC)C3)c2)CCC2CCC(C(=O)NC(c3ccccc3)c3ccccc3)N2C1=O	48.1

Problem: Which viability, T/C value is on record for COc1c(OCCCN2CCOCC2)ccc2c3n(c(=NC(=O)c4cnc(N)nc4)nc12)CCN3 + CNC(C)C(=O)NC1CN(S(=O)(=O)c2cccc(S(=O)(=O)N3CCC4CCC(C(=O)NC(c5ccccc5)c5ccccc5)N4C(=O)C(NC(=O)C(C)NC)C3)c2)CCC2CCC(C(=O)NC(c3ccccc3)c3ccccc3)N2C1=O ?
Result: 58
